Tgt: urease (Canavalia ensiformis)
Sequence (P07374 whole entry, looked up): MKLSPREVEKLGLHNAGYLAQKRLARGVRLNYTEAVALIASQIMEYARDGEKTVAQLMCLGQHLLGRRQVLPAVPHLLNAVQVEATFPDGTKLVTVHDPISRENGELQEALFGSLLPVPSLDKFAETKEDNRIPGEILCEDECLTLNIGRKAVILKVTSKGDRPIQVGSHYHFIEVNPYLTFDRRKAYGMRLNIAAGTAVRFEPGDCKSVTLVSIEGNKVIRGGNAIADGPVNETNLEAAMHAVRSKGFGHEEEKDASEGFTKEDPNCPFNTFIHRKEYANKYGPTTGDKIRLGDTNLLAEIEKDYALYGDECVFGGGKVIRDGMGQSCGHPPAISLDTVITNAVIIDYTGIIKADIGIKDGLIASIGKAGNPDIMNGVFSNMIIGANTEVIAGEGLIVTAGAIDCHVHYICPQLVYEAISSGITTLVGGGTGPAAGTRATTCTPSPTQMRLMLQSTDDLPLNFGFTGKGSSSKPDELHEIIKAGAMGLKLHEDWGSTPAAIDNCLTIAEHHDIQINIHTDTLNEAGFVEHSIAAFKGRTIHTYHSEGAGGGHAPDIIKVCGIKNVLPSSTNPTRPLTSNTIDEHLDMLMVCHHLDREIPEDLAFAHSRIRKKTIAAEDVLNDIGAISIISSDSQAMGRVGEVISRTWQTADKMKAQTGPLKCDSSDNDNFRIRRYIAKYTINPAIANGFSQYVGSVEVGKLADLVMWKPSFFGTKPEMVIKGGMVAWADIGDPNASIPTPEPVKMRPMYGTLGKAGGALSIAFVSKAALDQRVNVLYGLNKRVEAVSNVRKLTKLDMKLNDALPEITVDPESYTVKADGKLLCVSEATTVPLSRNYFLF
Assay: biochemical
Protocol Conditions: in vitro; standard thiourea; N.A * = Not active; read-out: Urease IC50 (µM ± SEM)
Measurement Label: IC50 (µM)
Numeric answer only, unit µM assumed.

The compound identified as NC(N)=S [Thiourea, thiourea, reference compound] registered its IC50 at 31.4

----------
Tgt: α-glucosidase
Assay: α-Glucosidase inhibitory assay
Assay type: biochemical
Protocol Conditions: in vitro; standard acarbose; N.A * = Not active; read-out: α-Glucosidase IC50 (µM ±SEM)
Procedure: A procedure based on the previously reported procedure with minor modifications was used to determine the inhibitory capacity of the newly designed derivatives of benzothiazole-derived pyrazoline-based thiazole (1–17). […] The absorbance of the final reaction mixture was determined for α-glucosidase at 405 nm. To correct the absorbance, a blank was prepared. […] A percentage of the inhibitory activity was calculated using a control sample without the inhibitors.
Give measured IC50 for each item. Keep answers brief.
Numeric answer only, unit µM assumed.

The compound identified as O=[N+]([O-])c1cc(Cl)ccc1-c1csc(N2N=C(c3cc(Cl)cnc3Cl)CC2c2nc3ccccc3s2)n1 (stereo not drawn) [Compound 9] registered its IC50 at 4.4

The compound identified as Cc1ccc(-c2csc(N3N=C(c4cc(Cl)cnc4Cl)CC3c3nc4ccccc4s3)n2)cc1 (stereo not drawn) [Compound 3] registered its IC50 at 7.5

The compound identified as Cc1ccc(C)c(-c2csc(N3N=C(c4cc(Cl)cnc4Cl)CC3c3nc4ccccc4s3)n2)c1 (stereo not drawn) [Compound 2] registered its IC50 at 14.2

The compound identified as O=[N+]([O-])c1ccc(-c2csc(N3N=C(c4cc(Cl)cnc4Cl)CC3c3nc4ccccc4s3)n2)cc1 (stereo not drawn) [Compound 4] registered its IC50 at 4.1

The compound identified as Fc1ccc(-c2csc(N3N=C(c4cc(Cl)cnc4Cl)CC3c3nc4ccccc4s3)n2)cc1 (stereo not drawn) [Compound 12] registered its IC50 at 3.5

The compound identified as O=[N+]([O-])c1ccccc1-c1csc(N2N=C(c3cc(Cl)cnc3Cl)CC2c2nc3ccccc3s2)n1 (stereo not drawn) [Compound 5] registered its IC50 at 6.7

The compound identified as FC(F)(F)c1ccc(-c2csc(N3N=C(c4cc(Cl)cnc4Cl)CC3c3nc4ccccc4s3)n2)cc1 (stereo not drawn) [Compound 6] registered its IC50 at 2.5

The compound identified as COc1ccc(OC)c(-c2csc(N3N=C(c4cc(Cl)cnc4Cl)CC3c3nc4ccccc4s3)n2)c1 (stereo not drawn) [Compound 10] registered its IC50 at 8.9

The compound identified as O=[N+]([O-])c1cc(Br)ccc1-c1csc(N2N=C(c3cc(Cl)cnc3Cl)CC2c2nc3ccccc3s2)n1 (stereo not drawn) [Compound 1] registered its IC50 at 13.1

The compound identified as Oc1cc(Cl)cc(Cl)c1-c1csc(N2N=C(c3cc(Cl)cnc3Cl)CC2c2nc3ccccc3s2)n1 (stereo not drawn) [Compound 14] registered its IC50 at 3.4

The compound identified as Oc1cc(F)ccc1-c1csc(N2N=C(c3cc(Cl)cnc3Cl)CC2c2nc3ccccc3s2)n1 (stereo not drawn) [Compound 7] registered its IC50 at 3.2

The compound identified as Clc1cnc(Cl)c(C2=NN(c3nc(-c4cccc(Cl)c4Cl)cs3)C(c3nc4ccccc4s3)C2)c1 (stereo not drawn) [Compound 17] registered its IC50 at 6.8

Each recorded value in this set is attributed to paper PMC10747725.
